Measured on: Mitogen-activated protein kinase 9 (Homo sapiens, UniProt P45984)
Sequence (P45984 whole entry): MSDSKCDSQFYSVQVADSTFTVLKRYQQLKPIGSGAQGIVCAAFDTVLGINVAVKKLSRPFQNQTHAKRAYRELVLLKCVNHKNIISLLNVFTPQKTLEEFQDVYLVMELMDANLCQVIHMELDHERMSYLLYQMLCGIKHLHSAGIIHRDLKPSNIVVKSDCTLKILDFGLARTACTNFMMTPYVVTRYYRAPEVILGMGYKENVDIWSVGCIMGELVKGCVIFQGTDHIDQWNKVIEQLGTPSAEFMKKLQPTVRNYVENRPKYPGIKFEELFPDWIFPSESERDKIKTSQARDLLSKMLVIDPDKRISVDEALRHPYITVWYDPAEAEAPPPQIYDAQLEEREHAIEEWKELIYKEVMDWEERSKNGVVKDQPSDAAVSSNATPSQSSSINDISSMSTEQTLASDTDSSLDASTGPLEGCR
Experiment: Inhibition of human JNK2 alpha2 using GST-tagged ATF2 as substrate and [gamma33P]ATP incubated for 10 mins prior to substrate addition measured after 30 mins by scintillation counting
Readout name: IC50 (nM)
# value in nM; strip the unit string

[
  {
    "Structure smiles": "COC(=O)c1c(Cc2ccc(S(C)(=O)=O)cc2)c(=O)c2ccc(C(F)(F)F)nc2n1-c1ccccc1",
    "Endpoint unit": "nM",
    "IC50": 220
  }
]

Please find the next compound below.
Recall the recorded IC50 for COC(=O)c1c(Cc2ccc(S(=O)(=O)N3CCNCC3)cc2)c(=O)c2ccc(Cl)cc2n1-c1ccccc1 with Mitogen-activated protein kinase 9 (Homo sapiens, UniProt P45984) and state it.
50

The measurements presented in this section are drawn from ChEMBL document CHEMBL2203077.
